The reported measurements were obtained from PubChem BioAssay (NCATS).

Assay: qHTS of pediatric cancer cell lines to identify multiple opportunities for drug repurposing: Primary screen for Rh30 cells (AID 1347107); also: nearly all actives have a fitted effect of over 75% in size
Settings: Rh30 rhabdomyosarcoma viability, CellTiter-Glo luminescence, 48 h; series mostly up to 46 µM
Results filed as inconclusive are left out. Activity calls are given as the source filed them. Calls follow the shape of the dose curve; as a rule, active = well fitted cell-killing curve with a large enough effect; inconclusive = small, poorly fitted or top-dose-only effect; inactive = no such curve, though single readings can be large or run the other way.
reported.endpoint: activity change, negative = cytotoxic

Take a look at these entries with their results.
INSERT INTO assay_data (molecule, reported_endpoint, reported_result) VALUES
  ('CCCCOCCOCCOCc1cc2c(cc1CCC)OCO2', 'activity change, negative = cytotoxic', 'inactive'),
  ('C[N+](C)(C)CCCCCCCCCC[N+](C)(C)C', 'activity change, negative = cytotoxic', 'inactive'),
  ('CCO/C([O-])=N/c1c[n+](N2CCOCC2)no1', 'activity change, negative = cytotoxic', 'inactive'),
  ('NC1=NCC2c3ccccc3Cc3ccccc3N12 (stereo unspecified)', 'activity change, negative = cytotoxic', 'inactive'),
  ('C=CCc1ccccc1OCC(O)CNC(C)C (stereo unspecified)', 'activity change, negative = cytotoxic', 'inactive');

Go through the list and state activity change, negative = cytotoxic for each entry.
1. CC(=O)[C@]1(O)Cc2c(O)c3c(c(O)c2[C@@H](O[C@H]2C[C@H](N)[C@H](O)[C@H](C)O2)C1)C(=O)c1ccccc1C3=O
2. CC(C)(C)NCC(O)c1cc(O)cc(O)c1 (stereo unspecified)
3. CN(C)C/C=C(/c1ccc(Br)cc1)c1cccnc1
4. COc1ccc([C@@H]2Sc3ccccc3N(CCN(C)C)C(=O)[C@@H]2OC(C)=O)cc1

1. inactive
2. inactive
3. inactive
4. inactive

Go through the items and report each one's activity change, negative = cytotoxic.
1. OCCN1CCN(CCCN2c3ccccc3C=Cc3ccccc32)CC1
2. O=C(CCCN1CCC(O)(c2cccc(C(F)(F)F)c2)CC1)c1ccc(F)cc1

1: inactive; 2: inactive

----------
Assay: qHTS of pediatric cancer cell lines to identify multiple opportunities for drug repurposing: Confirmatory screen for LAN-5 cells (AID 1347113); also: nearly all actives have a fitted effect of over 65% in size; also: potency is read from the fitted curve at half-maximal effect
Conditions: LAN-5 neuroblastoma cell viability; series mostly up to 45.9 µM
Experimental: Drug repurposing or repositioning has been offered as a strategy for drug development in oncology programs. […] [1] Shen, M et al. Quantitative high-throughput phenotypic screening of pediatric cancer cell lines identifies multiple opportunities for drug repurposing. […] Cells were assayed in growth media at a density of 500-1,000 cells/well. […] After a 15 min incubation at room temperature, samples were analyzed for luminescence intensity using a ViewLux High-throughput CCD imager equipped with clear filters.
Results filed as inconclusive are left out. Calls of active or inactive are those of the source. The call rests on the fitted dose curve; in most records, active means well fitted cell-killing curve with a large enough effect; inconclusive means small, poorly fitted or top-dose-only effect, or effect the other way; inactive means no such curve, though single readings can be large or run the other way.
reported.endpoint: Potency

INSERT INTO results (compound, reported_result) VALUES
  ('C[n+]1cc2c3c(ccc2c2ccc4cc5c(cc4c21)OCO5)OCO3', '0.811 µM (active)'),
  ('Nc1nc(N)c2nc(-c3ccccc3)c(N)nc2n1', 'inactive'),
  ('C[C@]12CC[C@@H]3c4ccc(O)cc4C[C@@H](CCCCCCCCCS(=O)CCCC(F)(F)C(F)(F)F)[C@H]3[C@@H]1CC[C@@H]2O (some centres undefined)', 'inactive'),
  ('CN/C(=C\[N+](=O)[O-])NCCSCc1ccc(CN(C)C)o1', 'inactive');

----------
Test: qHTS of pediatric cancer cell lines to identify multiple opportunities for drug repurposing: Primary screen for SK-N-MC cells (AID 1347093)
Details: SK-N-MC viability, CellTiter-Glo luminescence, 48 h; series mostly up to 46 µM
Inconclusive results are not listed. Active and inactive are the calls of the source. Calls follow the shape of the dose curve; as a rule, active = well fitted cell-killing curve with a large enough effect; inconclusive = small, poorly fitted or top-dose-only effect; inactive = no such curve, though single readings can be large or run the other way.
Outcome (select one): yes = active, no = inactive

As a guide, the following entries are already answered.
INSERT INTO results (compound, group) VALUES
  ('C[n+]1cc2c3c(ccc2c2ccc4cc5c(cc4c21)OCO5)OCO3', 'yes'),
  ('COCCc1ccc(OCC(O)CNC(C)C)cc1 (configuration not stated)', 'no'),
  ('CCCCNc1ccc(C(=O)OCCN(C)C)cc1', 'no'),
  ('C[C@]12CCC(=O)C=C1CC[C@@H]1[C@@H]2C(=O)C[C@@]2(C)[C@H]1CC[C@]2(O)C(=O)CO', 'no'),
  ('C[N+](C)(C)CCCCCCCCCC[N+](C)(C)C', 'no'),
  ('CCN(CC)CC(=O)Nc1c(C)cccc1C', 'no'),
  ('CCn1ccnc1CC1COc2ccccc2O1 (configuration not stated)', 'no'),
  ('CCO/C([O-])=N/c1c[n+](N2CCOCC2)no1', 'no'),
  ('O=C(O)CP(=O)(O)O', 'no'),
  ('CCCN1C[C@H](CSC)C[C@@H]2c3cccc4[nH]cc(c34)C[C@H]21', 'no');

Would you mind telling me which call this test gave `Cc1ccc(/C(=C\CN2CCCC2)c2ccccn2)cc1` ? no

How did this test come out for `N[C@@H](COP(=O)(O)O)C(=O)O` ? no
